- System: A549-TUBA1B-RELA
- assay.method.text: phenotypically active (imaging signature differs from DMSO and reproducible) at any of 0.3-9 uM (binary (1 = active, 0 = inactive)); higher = active
- details: treatment time: 24 h
Structures can show the parent of a compound that is named as a salt.
Choose one outcome from this list and give only that: active, inactive

Answered cases to consult:
compound	system	group.label
CCN(Cc1ccncc1)C(=O)C(CO)c1ccccc1 (stereo not drawn) [tropicamide]	A549-TUBA1B-RELA	inactive
Cc1c(F)cc(C(=O)NC2CC2)cc1-c1ccc(C(=O)NCC(C)(C)C)cn1	A549-TUBA1B-RELA	inactive
CC(C)(C)c1ccc(C(O)CCCN2CCC(C(O)(c3ccccc3)c3ccccc3)CC2)cc1 (stereo not drawn)	A549-TUBA1B-RELA	inactive
COc1cc2ncnc(Oc3cccc(NC(=O)Nc4cc(C(C)(C)C(F)(F)F)on4)c3)c2cc1OC	A549-TUBA1B-RELA	inactive
N#Cc1ccccc1OCC(O)CNCCNC(=O)Nc1ccccc1 (stereo not drawn)	A549-TUBA1B-RELA	inactive
CC(C)(C)NS(=O)(=O)c1cncc(-c2cc(F)c3nc(N)nn3c2)c1	A549-TUBA1B-RELA	inactive
COc1c(Cl)cc2c([nH]c3cnccc32)c1NC(=O)c1cccnc1C [ML 120B dihydrochloride]	A549-TUBA1B-RELA	active
CCCCc1oc2ccccc2c1C(=O)c1cc(I)c(OCCN(CC)CC)c(I)c1	A549-TUBA1B-RELA	active

## Task Which outcome did this test record for the compound CC1CNCCN1S(=O)(=O)c1cccc2cnccc12 (stereo not drawn) [H-7 dihydrochloride] ?
## Result inactive

## Task Assay outcome for OC[C@H]1NC[C@@H](O)[C@@H](O)[C@@H]1O [1-Deoxymannojirimycin hydrochloride] : what was it?
## Result inactive

## Task # lookup: test call for CC(C)C(=O)SCCCCCCC(=O)Nc1nc(-c2ccccc2)cs1
## Result active
